Please provide measured pKi for the entries that follow.
Biological target: PfHGXPRT (Plasmodium falciparum (isolate FCR-3 / Gambia), UniProt P20035)
Experiment: biochemical
Type: biochemical
Conditions: Ki(app), 25° C., pH 7.4, guanine 60 μM; read-out: Ki Pf
Give bare numbers, as −log10 of the molar value.

Some molecules with known pKi results, for comparison:
INSERT INTO assay_data (molecule, result_value) VALUES
  ('Nc1nc2c(ncn2CCOCCP(=O)(O)O)c(=O)[nH]1 [PEEG, 2-(Phosphonoethoxy)ethyl guanine, reference compound]', 7.00),
  ('CCOC(=O)CN(CCn1cnc2c(=O)[nH]cnc21)CCP(=O)(O)O', 5.72),
  ('N#CCCN(CCn1cnc2c(=O)[nH]cnc21)CCP(=O)(O)O', 6.70),
  ('O=c1[nH]cnc2c1ncn2CCOCCP(=O)(O)O [PEEHx, 2-(phosphonoethoxy)ethyl hypoxanthine, reference compound]', 6.52),
  ('Nc1nc2c(ncn2CCNCCP(=O)(O)O)c(=O)[nH]1', 4.80),
  ('O=c1[nH]cnc2c1ncn2CCN(CCO)CCP(=O)(O)O', 5.59),
  ('CC(C#N)CN(CCn1cnc2c(=O)[nH]cnc21)CCP(=O)(O)O (centres unmarked)', 5.22),
  ('O=C(O)CCN(CCn1cnc2c(=O)[nH]cnc21)CCP(=O)(O)O', 6.40);

Moving on to another molecule below.
Summary for this molecule, COC(=O)CCN(CCn1cnc2c(=O)[nH]cnc21)CCP(=O)(O)O : pKi is 7.00

====

System: P. falciparum strain D6
Experiment: [3H]-hypoxanthine growth inhibition assay, P. falciparum D6
Details: Plasmodium falciparum, D6, read-out: D6 IC50
measured endpoint: IC50

Completed entries (count: 3):
INSERT INTO assay_data (molecule, result_value) VALUES
  ('CCOC(=O)[C@H](Cc1ccccc1)NP(=O)(CCN(CCCC#N)CCn1cnc2c(=O)[nH]cnc21)N[C@@H](Cc1ccccc1)C(=O)OCC [Compound 6]', '4.2 µM'),
  ('CCOC(=O)[C@H](Cc1ccccc1)NP(=O)(CCN(CCC(=O)OC)CCn1cnc2c(=O)[nH]c(N)nc21)N[C@@H](Cc1ccccc1)C(=O)OCC [Compound 10]', '11.8 µM'),
  ('CCCOC(=O)[C@H](Cc1ccccc1)NP(=O)(CCN(CCC#N)CCn1cnc2c(=O)[nH]cnc21)N[C@@H](Cc1ccccc1)C(=O)OCCC [Compound 14]', '12.3 µM');

// each listed molecule needs a value for IC50
1. COC(=O)CCN(CCn1cnc2c(=O)[nH]c(N)nc21)CCP(=O)(O)O [Compound 8]
2. CCCOC(=O)[C@H](Cc1ccccc1)NP(=O)(CCN(CCC#N)CCn1cnc2c(=O)[nH]c(N)nc21)N[C@@H](Cc1ccccc1)C(=O)OCCC [Compound 13]
3. N#CCCN(CCn1cnc2c(=O)[nH]c(N)nc21)CCP(=O)(O)O [Compound 11]
4. N#CCCCN(CCn1cnc2c(=O)[nH]c(N)nc21)CCP(=O)(O)O [Compound 4]
5. N#CCCN(CCn1cnc2c(=O)[nH]cnc21)CCP(=O)(O)O [Compound 12]

3.5 µM
75 µM
~145 µM
8.6 µM
6.4 µM

====

Here we list compounds with their recorded Ki when tested on human HGPRT (Homo sapiens (Human), UniProt P00492).
Sequence (P00492 whole entry): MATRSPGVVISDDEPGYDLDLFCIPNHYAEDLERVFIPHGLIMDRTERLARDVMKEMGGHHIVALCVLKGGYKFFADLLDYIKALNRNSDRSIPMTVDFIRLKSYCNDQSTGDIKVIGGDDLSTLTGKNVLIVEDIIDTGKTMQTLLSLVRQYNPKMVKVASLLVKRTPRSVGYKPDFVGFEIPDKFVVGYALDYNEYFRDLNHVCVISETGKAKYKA
Answers are plain numbers, in µM.

# count of solved cases: 3
INSERT INTO measurements (compound, target_system, result_value) VALUES
  ('CCOC(=O)CN(CCn1cnc2c(=O)[nH]cnc21)CCP(=O)(O)O [Example 15]', 'human HGPRT (Homo sapiens (Human), UniProt P00492)', 2.6),
  ('Nc1nc2c(ncn2CCNCCP(=O)(O)O)c(=O)[nH]1 [Example 12]', 'human HGPRT (Homo sapiens (Human), UniProt P00492)', 3),
  ('O=c1[nH]cnc2c1ncn2CCN(CCO)CCP(=O)(O)O [Example 24]', 'human HGPRT (Homo sapiens (Human), UniProt P00492)', 5.5);

Could you now consider this next compound?
Observed Ki on human HGPRT (Homo sapiens (Human), UniProt P00492), entry N#CCN(CCn1cnc2c(=O)[nH]cnc21)CCP(=O)(O)O [Example 18] , equals 35

====

Task for the reader: assign each of the following compounds its reported Ki.
Target: E. coli XGPRT (Escherichia coli (strain K12))
Experiment: Ki values with E. coli XGPRT
Settings: read-out: Ki (μM) XGPRT
One number for each entry, in µM.

INSERT INTO assay_data (smiles_code, result_value) VALUES
  ('Nc1nc2c(ncn2CCN(CCOCP(=O)(O)O)CCP(=O)(O)O)c(=O)[nH]1', 0.4);

Next:
Measured Ki of Nc1nc2c(ncn2CCN(CCP(=O)(O)O)CP(=O)(O)O)c(=O)[nH]1 : 27

====

Target: PfHGXPRT (Plasmodium falciparum (isolate FCR-3 / Gambia), UniProt P20035)
Test: biochemical
Type: biochemical
Please go through the items and note down their pKi.
Answers are plain numbers, as −log10 of the molar value.

INSERT INTO assay_data (compound, result_value) VALUES
  ('O=c1[nH]cnc2c1ncn2CCN(CCP(=O)(O)O)CCP(=O)(O)O [Example 25]', 6.40);

Proceed to the following item.
Notebook: O=C(O)CN(CCn1cnc2c(=O)[nH]cnc21)CCP(=O)(O)O [Example 21] , pKi read as 6.22

====

Answer each item with its documented IC90.
Tested on: P. falciparum strain D6
Assay: [3H]-hypoxanthine growth inhibition assay, P. falciparum D6
Settings: Plasmodium falciparum, D6, read-out: D6 IC90
Answers are plain numbers, in µM.

INSERT INTO assay_data (compound, result_value) VALUES
  ('COC(=O)CCN(CCn1cnc2c(=O)[nH]c(N)nc21)CCP(=O)(O)O [Compound 8]', 8.6),
  ('N#CCCN(CCn1cnc2c(=O)[nH]cnc21)CCP(=O)(O)O [Compound 12]', 10.2),
  ('CCCOC(=O)[C@H](Cc1ccccc1)NP(=O)(CCN(CCC#N)CCn1cnc2c(=O)[nH]cnc21)N[C@@H](Cc1ccccc1)C(=O)OCCC [Compound 14]', 18.7);

The reported IC90 value, P. falciparum strain D6, for N#CCCCN(CCn1cnc2c(=O)[nH]c(N)nc21)CCP(=O)(O)O [Compound 4] reads 24.5

====

Let's go through some recorded Ki values for human HGPRT (Homo sapiens (Human)) together.
Record the result as a number with its unit.

INSERT INTO results (compound, result_value) VALUES
  ('O=c1[nH]cnc2c1ncn2CCOCCP(=O)(O)O [PEEHx, 2-(phosphonoethoxy)ethyl hypoxanthine, reference compound]', '3.6 µM'),
  ('O=c1[nH]cnc2c1ncn2CCNCCP(=O)(O)O', '40 µM');

Entry CC(C#N)CN(CCn1cnc2c(=O)[nH]cnc21)CCP(=O)(O)O (stereo not drawn) — recorded Ki = 29 µM

====

Give IC90 for every item shown.
Test system: P. falciparum strain D6
Assay: [3H]-hypoxanthine growth inhibition assay, P. falciparum D6
Settings: Plasmodium falciparum, D6, read-out: D6 IC90
Answers are plain numbers, in µM.

Solved cases (2 shown):
INSERT INTO assay_data (smiles_code, target_system, unit_text, result_value) VALUES
  ('CCOC(=O)[C@H](Cc1ccccc1)NP(=O)(CCN(CCCC#N)CCn1cnc2c(=O)[nH]cnc21)N[C@@H](Cc1ccccc1)C(=O)OCC', 'P. falciparum strain D6', 'µM', 10.6),
  ('CCCOC(=O)[C@H](Cc1ccccc1)NP(=O)(CCN(CCC#N)CCn1cnc2c(=O)[nH]c(N)nc21)N[C@@H](Cc1ccccc1)C(=O)OCCC', 'P. falciparum strain D6', 'µM', 215);

Now turn to the next molecule.
Lab book: IC90 of CCOC(=O)[C@H](Cc1ccccc1)NP(=O)(CCN(CCC(=O)OC)CCn1cnc2c(=O)[nH]c(N)nc21)N[C@@H](Cc1ccccc1)C(=O)OCC noted as 30

====

For each entry below, report its Ki value.
Target: UniProt:P00492
Answers are plain numbers, in µM.

Here is how some molecules turned out for Ki.
INSERT INTO results (molecule, target_system, result_value) VALUES
  ('Nc1nc2c(ncn2CCOCCP(=O)(O)O)c(=O)[nH]1 [PEEG, 2-(Phosphonoethoxy)ethyl guanine, reference compound]', 'UniProt:P00492', 1),
  ('COC(=O)CCCN(CCn1cnc2c(=O)[nH]cnc21)CCP(=O)(O)O', 'UniProt:P00492', 22);

Briefly, Ki measured for N#CCCN(CCn1cnc2c(=O)[nH]cnc21)CCP(=O)(O)O : 2.4

====

Target: PvHGPRT (Plasmodium vivax, UniProt A5K7E9)
Sequence (A5K7E9 1-233): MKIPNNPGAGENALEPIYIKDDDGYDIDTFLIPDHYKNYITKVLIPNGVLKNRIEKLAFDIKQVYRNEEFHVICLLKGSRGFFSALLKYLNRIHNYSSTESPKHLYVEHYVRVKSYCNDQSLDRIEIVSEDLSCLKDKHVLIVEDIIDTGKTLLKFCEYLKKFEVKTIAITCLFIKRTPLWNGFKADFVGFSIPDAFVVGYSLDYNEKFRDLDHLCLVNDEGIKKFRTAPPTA
Assay: biochemical
Conditions: Ki Pv
measured endpoint: Ki

Reported Ki for COC(=O)CCCN(CCn1cnc2c(=O)[nH]c(N)nc21)CCP(=O)(O)O was ≥ 200 µM

Where do the numbers come from? From patent US9200020B2.
